Sourced from the supplement of paper PMC4862054

Tested on: SK-BR-3
Experiment: normalised viability (% of control), CellTiter-Blue; higher = more viable cells (about 100 = DMSO control)
Conditions: 10 nM; incubation time: 72 h
READOUT_TYPE: normalised viability

CS(=O)(=O)c1ccc(C(=O)Nc2ccc(Cl)c(-c3ccccn3)c2)c(Cl)c1 ... 107%
C=CCNC1=C2C[C@@H](C)C[C@H](OC)[C@H](O)[C@@H](C)/C=C(\C)[C@H](OC(N)=O)[C@@H](OC)/C=C\C=C(/C)C(=O)NC(=CC1=O)C2=O ... 73.6%
S=c1[nH]cnc2nc[nH]c12 ... 107%

Continue with the molecule presented below.
normalised viability measured on C[C@]1(c2nc3c(C(N)=O)cccc3[nH]2)CCCN1 = 93.8%

* * *

Tested on: MDA-MB-436
Conditions: 72 h
READOUT_TYPE: EC50, CellTiter-Blue viability (µM)
Answers are plain numbers, in µM.

// solved cases for EC50, CellTiter-Blue viability follow
Nc1nc(Cl)nc2c1ncn2[C@H]1C[C@H](O)[C@@H](CO)O1 [Cladribine] ... 0.799
CO[C@H]1C[C@@H]2CC[C@@H](C)[C@@](O)(O2)C(=O)C(=O)N2CCCC[C@H]2C(=O)O[C@H]([C@H](C)C[C@@H]2CC[C@@H](OC(=O)C(C)(CO)CO)[C@H](OC)C2)CC(=O)[C@H](C)/C=C(\C)[C@@H](O)[C@@H](OC)C(=O)[C@H](C)C[C@H](C)/C=C/C=C/C=C/1C [Temsirolimus] ... 0.00505
CN(C)C/C=C/C(=O)Nc1cc2c(Nc3ccc(F)c(Cl)c3)ncnc2cc1O[C@H]1CCOC1 [Afatinib] ... 5.41

Attention now turns to another entry.
Please fill in: EC50, CellTiter-Blue viability reported for CN1CCC(COc2cnc(-c3cccc(Cn4nc(-c5cccc(C#N)c5)ccc4=O)c3)nc2)CC1 = 3.53

* * *

Consider the following compounds; for each one, report its normalised response.
System: MFM-223
Assay: normalised response (% of control), CellTiter-Glo; higher = more viable cells (100 = DMSO, 0 = benzethonium chloride kill control)
Conditions: incubation time: 72 h
Numbers only, in %.

Past entries and their recorded results:
COc1cccc2cc(-c3nc([C@H]4CC[C@H](C(=O)O)CC4)n4ncnc(N)c34)[nH]c12 [OSI-027] (10 nM) ... 93
Nc1nc(Cl)nc2c1ncn2[C@H]1C[C@H](O)[C@@H](CO)O1 [Cladribine] (0.1 nM) ... 106
COc1cc(Nc2ncc3c(n2)-c2ccc(Cl)cc2C(c2c(F)cccc2OC)=NC3)ccc1C(=O)O [Alisertib] (1000 nM) ... 56.4

Item: CN1CCC(COc2cnc(-c3cccc(Cn4nc(-c5cccc(C#N)c5)ccc4=O)c3)nc2)CC1 (1 nM) | normalised response: 93.6

* * *

Test system: CAL-148
Assay: normalised response (% of control), CellTiter-Glo; higher = more viable cells (100 = DMSO, 0 = benzethonium chloride kill control)
Conditions: incubation time: 72 h
Exercise: state measured normalised response for each of the compounds provided.
Give bare numbers, in %.

// solved cases for normalised response follow
Nc1nc(Cl)nc2c1ncn2[C@H]1C[C@H](O)[C@@H](CO)O1 [Cladribine] (100 nM) ... 97.8
Cc1c2oc3c(C)ccc(C(=O)N[C@@H]4C(=O)N[C@H](C(C)C)C(=O)N5CCC[C@H]5C(=O)N(C)CC(=O)N(C)[C@@H](C(C)C)C(=O)O[C@@H]4C)c3nc-2c(C(=O)N[C@@H]2C(=O)N[C@H](C(C)C)C(=O)N3CCC[C@H]3C(=O)N(C)CC(=O)N(C)[C@@H](C(C)C)C(=O)O[C@@H]2C)c(N)c1=O [Dactinomycin] (100 nM) ... 2.05

For OC[C@H]1O[C@@H](n2cnc3c2N=CNC[C@H]3O)C[C@@H]1O [Pentostatin] (10 nM) on CAL-148, measured normalised response was 102

* * *

System: CAL-51
Test: drug sensitivity score (DSS), CellTox Green (DSS (AUC-based score)); higher = stronger drug effect (viability inhibition or cytotoxicity); extreme values may be limits of the assay
Details: incubation time: 72 h
READOUT_TYPE: drug sensitivity score
Answers are plain numbers.

Nc1nc(Cl)nc2c1ncn2[C@H]1C[C@H](O)[C@@H](CO)O1 ... 0
Clc1ccc(C(c2ccccc2Cl)C(Cl)Cl)cc1 (stereo not given) ... 0
Cc1ccc(F)c(NC(=O)Nc2ccc(-c3cccc4[nH]nc(N)c34)cc2)c1 ... 0
C=CC[C@@H]1/C=C(\C)C[C@H](C)C[C@H](OC)[C@H]2O[C@@](O)(C(=O)C(=O)N3CCCC[C@H]3C(=O)O[C@H](/C(C)=C/[C@@H]3CC[C@@H](O)[C@H](OC)C3)[C@H](C)[C@@H](O)CC1=O)[C@H](C)C[C@@H]2OC ... 0

We next turn to a different compound, shown below.
get_value(item= Nc1ccn([C@@H]2O[C@H](CO)[C@@H](O)[C@@H]2O)c(=O)n1 , readout=drug sensitivity score) returns 13.1

* * *

Tested on: CAL-51
Experiment: normalised response (% of control), CellTiter-Glo; higher = more viable cells (100 = DMSO, 0 = benzethonium chloride kill control)
Settings: incubation time: 72 h
Would you kindly list normalised response for each of these compounds?
Numbers only, in %.

Recorded normalised response, per entry:
OC[C@H]1O[C@@H](n2cnc3c2N=CNC[C@H]3O)C[C@@H]1O [Pentostatin] (10000 nM) ... 90.2
C=CCNC1=C2C[C@@H](C)C[C@H](OC)[C@H](O)[C@@H](C)/C=C(\C)[C@H](OC(N)=O)[C@@H](OC)/C=C\C=C(/C)C(=O)NC(=CC1=O)C2=O [Tanespimycin] (10000 nM) ... 14.9
Cc1c2oc3c(C)ccc(C(=O)N[C@@H]4C(=O)N[C@H](C(C)C)C(=O)N5CCC[C@H]5C(=O)N(C)CC(=O)N(C)[C@@H](C(C)C)C(=O)O[C@@H]4C)c3nc-2c(C(=O)N[C@@H]2C(=O)N[C@H](C(C)C)C(=O)N3CCC[C@H]3C(=O)N(C)CC(=O)N(C)[C@@H](C(C)C)C(=O)O[C@@H]2C)c(N)c1=O [Dactinomycin] (1000 nM) ... 9.31
CS(=O)(=O)c1ccc(C(=O)Nc2ccc(Cl)c(-c3ccccn3)c2)c(Cl)c1 [Vismodegib] (10000 nM) ... 97.8
Nc1nc(Cl)nc2c1ncn2[C@H]1C[C@H](O)[C@@H](CO)O1 [Cladribine] (1000 nM) ... 124
S=c1[nH]cnc2nc[nH]c12 [Mercaptopurine] (10000 nM) ... 80.5

Shifting focus to the compound that follows.
normalised response for CO[C@H]1C[C@@H]2CC[C@@H](C)[C@@](O)(O2)C(=O)C(=O)N2CCCC[C@H]2C(=O)O[C@H]([C@H](C)C[C@@H]2CC[C@@H](OC(=O)C(C)(CO)CO)[C@H](OC)C2)CC(=O)[C@H](C)/C=C(\C)[C@@H](O)[C@@H](OC)C(=O)[C@H](C)C[C@H](C)/C=C/C=C/C=C/1C [Temsirolimus] (100 nM) is 61

* * *

Answer each item with its documented normalised response.
System: Hs578T
Assay: normalised response (% of control), CellTiter-Glo; higher = more viable cells (100 = DMSO, 0 = benzethonium chloride kill control)
Details: incubation time: 72 h
Answers without a unit are incomplete; give the number and then its unit.

CC(=O)O[C@]1(C(C)=O)CC[C@H]2[C@@H]3C=C(C)C4=CC(=O)CC[C@]4(C)[C@H]3CC[C@@]21C [Megestrol acetate] (10000 nM) ... 94.5%

Please fill in: normalised response reported for Cc1c2oc3c(C)ccc(C(=O)N[C@@H]4C(=O)N[C@H](C(C)C)C(=O)N5CCC[C@H]5C(=O)N(C)CC(=O)N(C)[C@@H](C(C)C)C(=O)O[C@@H]4C)c3nc-2c(C(=O)N[C@@H]2C(=O)N[C@H](C(C)C)C(=O)N3CCC[C@H]3C(=O)N(C)CC(=O)N(C)[C@@H](C(C)C)C(=O)O[C@@H]2C)c(N)c1=O [Dactinomycin] (1000 nM) = 3.61%

* * *

Please go through the items and note down their normalised response.
Test system: MDA-MB-231
Assay: normalised response (% of control), CellTiter-Glo; higher = more viable cells (100 = DMSO, 0 = benzethonium chloride kill control)
Details: incubation time: 72 h
Answers are plain numbers, in %.

Worked cases, normalised response given:
CS(=O)(=O)c1ccc(C(=O)Nc2ccc(Cl)c(-c3ccccn3)c2)c(Cl)c1 [Vismodegib] (100 nM) ... 94.3
CCN1CCN(c2ccc(Nc3cc(N(C)C(=O)Nc4c(Cl)c(OC)cc(OC)c4Cl)ncn3)cc2)CC1 [NVP-BGJ398] (10 nM) ... 93.2
COc1cccc2c1C(=O)c1c(O)c3c(c(O)c1C2=O)C[C@@](O)(C(=O)CO)C[C@@H]3O[C@H]1C[C@H](N)[C@H](O)[C@H](C)O1 [Doxorubicin] (10 nM) ... 104
CO[C@H]1C[C@@H]2CC[C@@H](C)[C@@](O)(O2)C(=O)C(=O)N2CCCC[C@H]2C(=O)O[C@H]([C@H](C)C[C@@H]2CC[C@@H](OC(=O)C(C)(CO)CO)[C@H](OC)C2)CC(=O)[C@H](C)/C=C(\C)[C@@H](O)[C@@H](OC)C(=O)[C@H](C)C[C@H](C)/C=C/C=C/C=C/1C [Temsirolimus] (1 nM) ... 98.8
N#CC[C@H](C1CCCC1)n1cc(-c2ncnc3[nH]ccc23)cn1 [Ruxolitinib] (100 nM) ... 97.9

For each of the compounds below, state normalised response.
1. COc1cccc2cc(-c3nc([C@H]4CC[C@H](C(=O)O)CC4)n4ncnc(N)c34)[nH]c12 [OSI-027] (100 nM)
2. CN1CC[C@H](c2c(O)cc(O)c3c(=O)cc(-c4ccccc4Cl)oc23)[C@H](O)C1 [Alvocidib] (100 nM)
3. Cc1c2oc3c(C)ccc(C(=O)N[C@@H]4C(=O)N[C@H](C(C)C)C(=O)N5CCC[C@H]5C(=O)N(C)CC(=O)N(C)[C@@H](C(C)C)C(=O)O[C@@H]4C)c3nc-2c(C(=O)N[C@@H]2C(=O)N[C@H](C(C)C)C(=O)N3CCC[C@H]3C(=O)N(C)CC(=O)N(C)[C@@H](C(C)C)C(=O)O[C@@H]2C)c(N)c1=O [Dactinomycin] (10 nM)

95.3
90.8
62.1
